# system.under.test: UniProt P08173
# assay.summary: Radioligand (tritiated N-methylscopolamine) binding assay, M4
# test.conditions: Ki against the M4 receptor; membranes from CHO cells expressing human M4; tritiated N-methylscopolamine 1.5 nM; read-out: Ki
# Description: Binding affinity (Ki) of compounds was measured by inhibition of radioligand binding to membranes from CHO cells expressing human M1, M2, M3, M4 and M5 receptors. […] Harvesting and radioactivity counting was conducted as previously described (see, e.g., Hoare et al., Mol. Pharmacol. 2003 63(3):751-65); Erratum at Mol. Pharmacol. 2005 July; 68(1): 260).
assay.readout: Ki

Field: example entries. Status: answers known.
{"columns": ["compound", "Ki"],
 "data": [
  ["C[C@@H]1CN(c2ncc(C#N)cn2)C[C@H](C)N1C(=O)NCCC1CCN(CC23CC(C2)C3)CC1", "100 to 1000 nM"],
  ["Cc1c(C(=O)NCCC2CCN(Cc3ccccc3)CC2)cnc2cc(-c3ccc(Cl)cc3)nn12", "10 to 100 nM"],
  ["O=C(NCCC1CCN(Cc2ccccc2O)CC1)c1ccc(Oc2ccccc2)cc1", "100 to 1000 nM"],
  ["C[C@@H]1CN(c2ncc(C#N)c(NCC(F)(F)F)n2)CCN1C(=O)NCCC1CCN(Cc2ccccc2)CC1", "10 to 100 nM"],
  ["O=C(NCCC1CCN(Cc2ccccc2)CC1)N1CCC(O)(c2ccc(Cl)cc2)CC1", "100 to 1000 nM"]
]}

Give Ki for each listed item.
1. CN(CCNC(=O)c1ccc(-c2ccccc2)cc1)[C@@H]1CCN(Cc2ccccc2)C1
2. Cc1ccc(N2CCN(C(=O)NCCC3CCN(Cc4ccccc4)CC3)CC2)c(CO)c1
3. O=C(NCCC1CCN(Cc2cccnc2F)CC1)c1ccc(Oc2ccccc2)cc1
4. C[C@@H]1CN(c2cc(F)c(F)c(Cl)c2)C[C@H](C)N1C(=O)NCCC1CCN(Cc2ccccc2)CC1
5. CN(C(=O)NCCC1CCN(Cc2ccccc2)CC1)C1CCN(c2ncc(C(F)(F)F)cc2Cl)C1 (stereo not shown)

Completion:
1. 100 to 1000 nM
2. 100 to 1000 nM
3. 10 to 100 nM
4. < 10 nM
5. 10 to 100 nM

Items follow; give Ki for each.
1. N#Cc1cc(N2CCC(C(=O)NCCC3CCN(Cc4ccccc4)CC3)CC2)ccc1OC(F)(F)F
2. COc1cc(N2CCN(C(=O)NCCC3CCN(Cc4ccccc4)CC3)[C@H](C)C2)cc(F)c1C#N
3. C[C@@H]1CN(c2cc(C(F)(F)F)ccn2)CCN1C(=O)NCCC1CCN(Cc2ccccc2)CC1
4. CCNC(=O)c1cc(C)nc(N2CCN(C(=O)NCCC3CCN(Cc4ccccc4)CC3)[C@H](C)C2)n1
5. C[C@@H]1CN(c2cnc(C(F)(F)F)nc2)C[C@H](C)N1C(=O)NCCC1CCN(Cc2ccc(N(C)C)cc2)CC1
6. C[C@@H]1CN(c2ncc(C#N)cn2)C[C@H](C)N1C(=O)NCCC1CCN(Cc2ncccn2)CC1

Completion:
< 10 nM
< 10 nM
< 10 nM
100 to 1000 nM
10 to 100 nM
100 to 1000 nM

* * *

I'd be grateful if you could share measured pKi for these entries.
# system.under.test: human M2 receptor (Homo sapiens (Human))
# Sequence (P08172 whole entry): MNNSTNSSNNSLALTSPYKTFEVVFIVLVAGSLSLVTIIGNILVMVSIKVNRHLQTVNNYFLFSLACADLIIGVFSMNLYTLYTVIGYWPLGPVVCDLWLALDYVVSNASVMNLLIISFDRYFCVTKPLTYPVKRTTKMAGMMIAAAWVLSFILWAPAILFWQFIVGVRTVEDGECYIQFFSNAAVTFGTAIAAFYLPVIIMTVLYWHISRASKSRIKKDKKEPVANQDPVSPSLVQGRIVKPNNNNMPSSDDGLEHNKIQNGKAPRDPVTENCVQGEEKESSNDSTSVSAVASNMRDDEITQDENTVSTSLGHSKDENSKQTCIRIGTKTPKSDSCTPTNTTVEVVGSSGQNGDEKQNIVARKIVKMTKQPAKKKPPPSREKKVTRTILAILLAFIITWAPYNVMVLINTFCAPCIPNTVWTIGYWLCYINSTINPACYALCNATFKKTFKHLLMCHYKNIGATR
# assay.summary: Radioligand (tritiated N-methylscopolamine) binding assay, M2
# test.conditions: CHO cell membranes expressing human M2; 1.5 nM tritiated N-methylscopolamine; 90 min, 37° C.; read-out: Ki against M2 receptor (Table 21, M2)
pKi: −log10 of the molar value.

Some solved cases for reference:
{"columns": ["compound", "pKi"],
 "data": [
  ["O=C(NCC(O)C1CCN(Cc2ccccc2)CC1)C1CCN(c2ccc(OC(F)(F)F)cc2)CC1 (stereo not shown) [9-71]", "6.00 to 7.00"],
  ["C[C@@H]1CN(c2cc(F)c(F)c(Cl)c2)C[C@H](C)N1C(=O)NCCC1CCN(Cc2ccccc2)CC1", "7.00 to 8.00"],
  ["O=C(NCCC1CCN(Cc2ccccc2)CC1)C1CCN(c2ccc(F)c(OC(F)(F)F)c2)CC1", "6.00 to 7.00"],
  ["C[C@H]1CN(c2ccc(F)c(C#N)c2)CCN1C(=O)NCCC1CCN(Cc2ccccc2)CC1", "7.00 to 8.00"],
  ["C[C@@H]1CN(c2ncc(C#N)c(N)n2)C[C@H](C)N1C(=O)NCCC1CCN(Cc2ccccc2)CC1 [4-54]", "6.00 to 7.00"],
  ["C[C@@H]1CN(c2ccc(OC(F)(F)F)nc2)CCN1C(=O)NCCC1CCN(Cc2ccccc2)CC1", "7.00 to 8.00"]
]}

Prompt: Which pKi reading was recorded for the compound Cc1c(C(=O)NCCC2CCN(Cc3ccccc3)CC2)cnc2cc(-c3ccc(F)cc3F)nn12 ?
Completion: 7.00 to 8.00

* * *

# system.under.test: human M4 receptor (Homo sapiens (Human), UniProt P08173)
# Sequence (P08173 whole entry): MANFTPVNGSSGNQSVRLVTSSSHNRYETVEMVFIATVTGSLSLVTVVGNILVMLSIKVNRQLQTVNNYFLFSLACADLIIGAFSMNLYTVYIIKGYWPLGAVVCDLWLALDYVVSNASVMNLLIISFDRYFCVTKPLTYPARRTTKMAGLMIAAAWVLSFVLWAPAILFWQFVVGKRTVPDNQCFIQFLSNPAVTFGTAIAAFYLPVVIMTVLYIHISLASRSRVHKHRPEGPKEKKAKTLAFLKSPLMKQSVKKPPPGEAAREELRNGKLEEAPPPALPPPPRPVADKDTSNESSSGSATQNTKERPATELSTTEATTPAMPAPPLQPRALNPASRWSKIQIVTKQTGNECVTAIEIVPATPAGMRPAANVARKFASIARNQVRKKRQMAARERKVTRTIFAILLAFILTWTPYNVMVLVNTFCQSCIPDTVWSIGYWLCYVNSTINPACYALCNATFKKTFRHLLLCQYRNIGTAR
# assay.summary: Radioligand (tritiated N-methylscopolamine) binding assay, M4
# test.conditions: Ki against the M4 receptor; membranes from CHO cells expressing human M4; tritiated N-methylscopolamine 1.5 nM; read-out: Ki
I'd be grateful if you could share measured Ki for these entries.

Worked examples follow.
{"columns": ["smiles.repr", "Ki"],
 "data": [
  ["O=C(NCCC1CCN(Cc2ccccc2)CC1)C1CCN(c2ccc(OC(F)(F)F)cn2)CC1", "10 to 100 nM"],
  ["C[C@@H]1CN(c2cc(F)c(F)c(F)c2)CCN1C(=O)NCCC1CCN(Cc2ccccc2C#N)CC1", "100 to 1000 nM"]
]}

Shifting focus to the molecule that follows.
Prompt: Fill in the blank: the reported Ki of CN(CCNC(=O)c1ccc(-c2ccc(OC(F)(F)F)cc2)cc1)[C@@H]1CCN(Cc2ccccc2)C1 is ____.
Completion: 10 to 100 nM

* * *

# system.under.test: UniProtKB P08173
# assay.summary: Radioligand (tritiated N-methylscopolamine) binding assay, M4
# test.conditions: Ki against the M4 receptor; membranes from CHO cells expressing human M4; tritiated N-methylscopolamine 1.5 nM; read-out: Ki
What Ki was measured for each of the following?

{"columns": ["compound", "system.under.test", "Ki"],
 "data": [
  ["O=C(NCCC1CCN(Cc2ccccc2)CC1)N1CCC(c2csc3ccccc23)CC1 [8-10]", "UniProtKB P08173", "10 to 100 nM"],
  ["C[C@@H]1CN(c2ncc(C#N)cn2)C[C@H](C)N1C(=O)NCCC1CCN(Cc2ccncc2)CC1 [6-62]", "UniProtKB P08173", "100 to 1000 nM"],
  ["O=C(NCCC1(CO)CCN(Cc2ccccc2)CC1)C1CCN(c2ccc(OC(F)(F)F)cc2)CC1 [9-13]", "UniProtKB P08173", "10 to 100 nM"],
  ["COc1nc(N2C[C@@H](C)N(C(=O)NCCC3CCN(Cc4ccccc4)CC3)[C@@H](C)C2)ncc1C#N [4-69]", "UniProtKB P08173", "10 to 100 nM"],
  ["COc1cc(C#N)cc(N2CCC(C(=O)NCCC3CCN(Cc4ccccc4)CC3)CC2)c1 [10-54]", "UniProtKB P08173", "< 10 nM"],
  ["COC1(C(=O)NCCC2CCN(Cc3ccccc3)CC2)CCN(c2ccc(OC(F)(F)F)cc2)CC1 [10-38]", "UniProtKB P08173", "10 to 100 nM"]
]}

Please give Ki, item by item, for the list that follows.
1. O=C(OCCC1CCN(Cc2ccccc2)CC1)N1CCN(c2ccc(F)cc2)CC1 [12-3]
2. COc1ccc(C2CCN(C(=O)NCCC3CCN(Cc4ccccc4)CC3)CC2)cc1 [8-24]
3. COC(=O)C(c1ccccc1)N1CCC(CCNC(=O)C2CCN(c3ccc(OC(F)(F)F)cc3)CC2)CC1 (centres unmarked) [11-6]
4. C[C@@H]1CN(c2cncc(F)c2)CCN1C(=O)NCCC1CCN(Cc2ccccc2)CC1 [4-61]
5. C[C@@H]1CN(c2ncc(C#N)cn2)C[C@H](C)N1C(=O)NCCC1CCN(Cc2ccc(O)cc2)CC1 [6-42]
6. Cc1c(C(=O)NCCC2CCN(Cc3ccccc3)CC2)cnc2cc(-c3ccccc3C(F)(F)F)nn12 [18-11]
7. C[C@@H]1CN(c2ncc(C(=O)O)cn2)CCN1C(=O)NCCC1CCN(Cc2ccccc2)CC1 [5-2]
8. C[C@@H]1CN(c2cc(F)c(F)c(F)c2)CCN1C(=O)NCCC1CCN(Cc2ccc(C(N)=O)cc2)CC1 [6-16]

Completion:
["100 to 1000 nM", "100 to 1000 nM", "10 to 100 nM", "100 to 1000 nM", "< 10 nM", "10 to 100 nM", "100 to 1000 nM", "10 to 100 nM"]
